These measurements were taken from patent US11739098B2.

Measured IC50, listed per entry.
target_or_system: UniProtKB Q9NYK1
Sequence (Q9NYK1 27-1049): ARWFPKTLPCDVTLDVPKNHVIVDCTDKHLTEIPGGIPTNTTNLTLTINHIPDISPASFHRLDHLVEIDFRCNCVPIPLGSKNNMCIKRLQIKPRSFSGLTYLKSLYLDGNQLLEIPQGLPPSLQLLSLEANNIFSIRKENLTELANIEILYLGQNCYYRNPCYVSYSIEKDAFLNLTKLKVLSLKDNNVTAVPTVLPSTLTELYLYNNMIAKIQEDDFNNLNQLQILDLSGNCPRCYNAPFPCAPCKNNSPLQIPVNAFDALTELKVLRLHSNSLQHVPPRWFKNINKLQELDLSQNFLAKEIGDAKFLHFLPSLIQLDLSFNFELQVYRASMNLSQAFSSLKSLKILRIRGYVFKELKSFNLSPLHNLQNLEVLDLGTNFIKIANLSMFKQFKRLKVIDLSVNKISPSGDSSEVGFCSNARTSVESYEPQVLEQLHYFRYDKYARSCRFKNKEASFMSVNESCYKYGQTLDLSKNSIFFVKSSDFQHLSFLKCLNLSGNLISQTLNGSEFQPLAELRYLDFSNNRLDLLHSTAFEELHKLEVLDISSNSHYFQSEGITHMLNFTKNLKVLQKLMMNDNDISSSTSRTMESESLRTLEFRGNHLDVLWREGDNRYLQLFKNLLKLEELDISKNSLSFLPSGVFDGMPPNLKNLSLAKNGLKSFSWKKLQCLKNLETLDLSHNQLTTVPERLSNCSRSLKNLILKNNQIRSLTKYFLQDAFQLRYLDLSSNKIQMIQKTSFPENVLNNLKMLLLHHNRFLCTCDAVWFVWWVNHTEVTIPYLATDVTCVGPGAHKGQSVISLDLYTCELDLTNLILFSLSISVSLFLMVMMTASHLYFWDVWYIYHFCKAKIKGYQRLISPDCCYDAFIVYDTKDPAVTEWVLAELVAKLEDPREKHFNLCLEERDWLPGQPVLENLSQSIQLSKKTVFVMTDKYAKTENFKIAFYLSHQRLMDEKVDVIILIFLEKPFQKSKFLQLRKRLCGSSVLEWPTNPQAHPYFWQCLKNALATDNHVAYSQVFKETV
test: TLR7 inhibition reporter assay (HEK-Blue cells, SEAP reporter, gardiquimod stimulation)
test_context: HEK-Blue cells overexpressing human TLR7, SEAP reporter, gardiquimod 7.5 μM

Lookup: Report IC50, nothing else, for this molecule: `CCOc1cc(-c2[nH]c3ccc(C4CCN(CC(=O)N(C)C)CC4)cc3c2C(C)C)cc2nc(C)nn12`
Found: < 100 nM

Lookup: Report IC50, nothing else, for this molecule: `Cc1cc(-c2[nH]c3ccc(C4CCN(C5COC5)CC4)cc3c2C(C)C)cc2nccn12`
Found: 100 to 1000 nM

Lookup: Report IC50, nothing else, for this molecule: `CNC(=O)CN1CCC(c2ccc3[nH]c(-c4cn5ccnc5c(Cl)c4C)c(C(C)C)c3c2)CC1`
Found: < 100 nM

Lookup: Report IC50, nothing else, for this molecule: Cc1cc(-c2[nH]c3ccc(C4CCN(C5CCOCC5)CC4)cc3c2C(C)C)cc2cccnc12 [Example 704]
Found: < 100 nM

Lookup: Report IC50, nothing else, for this molecule: `CC(C)c1c(-c2ccnc3[nH]ncc23)[nH]c2ccc(C3CCN(Cc4ncn(C)n4)CC3)cc12`
Found: < 100 nM

***
Lookup: Report IC50, nothing else, for this molecule: `CC(C)c1c(-c2ccn3ccnc3c2)[nH]c2ccc(C3CCNCC3)cc12`
Found: < 100 nM

Lookup: Report IC50, nothing else, for this molecule: `CCc1c(-c2c[nH]c3ncccc23)[nH]c2ccc(C3CCNCC3)cc12`
Found: < 100 nM

Lookup: Report IC50, nothing else, for this molecule: `Cc1c(-c2[nH]c3ccc(C4CCN(C(=O)CN(C)C)CC4)cc3c2C(C)C)c2cccnc2n1C`
Found: < 100 nM

Lookup: Report IC50, nothing else, for this molecule: `CC(C)c1c(-c2ccc3nccn3c2)[nH]c2ccc(C3CCN(CC(=O)NCC(F)(F)F)CC3)cc12`
Found: 100 to 1000 nM

Lookup: Report IC50, nothing else, for this molecule: `CCc1c(-c2cnc3cn[nH]c3c2)[nH]c2ccc(C3CCN(C4CCN(C(C)C)CC4)CC3)cc12`
Found: < 100 nM

Lookup: Report IC50, nothing else, for this molecule: `Cc1c(-c2ccnc3cc[nH]c23)[nH]c2ccc(C3CCNCC3)cc12`
Found: < 100 nM

Lookup: Report IC50, nothing else, for this molecule: `CNCCN1CCC(c2ccc3[nH]c(-c4cc5cc(OC)ccc5o4)c(C)c3c2)CC1`
Found: > 50000 nM

Lookup: Report IC50, nothing else, for this molecule: `CCc1c[nH]c2nccc(-c3[nH]c4ccc(C5CCNCC5)cc4c3C(C)C)c12`
Found: 100 to 1000 nM

Lookup: Report IC50, nothing else, for this molecule: `Cc1c(-c2ncnc3[nH]ncc23)[nH]c2ccc(C3CCN(C4CCN(C(C)C)CC4)CC3)cc12`
Found: 100 to 1000 nM

Lookup: Report IC50, nothing else, for this molecule: `C[C@@H](O)CC(=O)N1CCC(c2ccc3[nH]c(-c4cc(F)c5nccn5c4)c(CC(F)F)c3c2)CC1`
Found: 100 to 1000 nM

Lookup: Report IC50, nothing else, for this molecule: `CC(C)c1c(-c2ccc(C#N)c3ncccc23)[nH]c2ccc(C3CCN(C4COC4)CC3)cc12`
Found: < 100 nM
